Target: IRAK-M (Homo sapiens)
Sequence (Q9Y616 1-596): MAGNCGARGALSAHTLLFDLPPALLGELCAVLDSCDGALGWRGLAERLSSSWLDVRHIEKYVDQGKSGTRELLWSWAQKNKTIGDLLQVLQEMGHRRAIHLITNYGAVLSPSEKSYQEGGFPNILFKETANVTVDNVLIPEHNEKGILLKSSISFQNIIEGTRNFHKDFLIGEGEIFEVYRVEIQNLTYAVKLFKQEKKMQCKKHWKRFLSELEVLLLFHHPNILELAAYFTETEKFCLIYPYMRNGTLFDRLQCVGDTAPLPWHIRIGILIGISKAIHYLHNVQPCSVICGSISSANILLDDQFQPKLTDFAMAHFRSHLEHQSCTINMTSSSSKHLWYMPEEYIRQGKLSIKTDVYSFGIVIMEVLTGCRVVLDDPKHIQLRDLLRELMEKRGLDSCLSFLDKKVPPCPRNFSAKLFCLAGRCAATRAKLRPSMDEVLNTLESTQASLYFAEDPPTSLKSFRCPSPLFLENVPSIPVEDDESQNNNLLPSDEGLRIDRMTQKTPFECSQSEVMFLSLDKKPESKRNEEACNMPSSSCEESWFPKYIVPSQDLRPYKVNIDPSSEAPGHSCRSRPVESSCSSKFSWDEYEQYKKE
Test: IRAK-M binding inhibitory activity (KINOMEscan active site-dependent competitive assay)
Parameters: purchased Eurofins Discover X
Settings: concentration of the test compound 1 μM; first symbol of cell; read-out: IRAK-M binding inhibition activity % Ctrl
Description: IRAK-M binding inhibitory activity was evaluated using active site-dependent competitive assay KINOMEscan® provided by Eurofins Discover X (Goldstein, D. M. et al. High-throughput kinase profiling as a platform for drug discovery. Nat. Rev. Drug Discovery. 7, 391-397 (2008)). IRAK-M binding inhibitory activity of the test compound was evaluated. […] The “% Ctrl” is calculated by the following formula. […]
readout.kind: remaining binding at 1 µM

>>> reported("c1ccc(-c2cc3ncnc(Nc4ccccn4)c3s2)cc1 [Ref. example 15]")
"25 to 50%"
>>> reported("COc1ccc(S(=O)(=O)N2CCC(Oc3ncnc4ccsc34)CC2)cn1 [Ref. example 60]")
"25 to 50%"
>>> reported("Cc1noc(C)c1CN1CCC(Oc2ccnc3ccsc23)CC1 [Ref. example 78]")
"25 to 50%"
>>> reported("O=S(=O)(c1cccc(Oc2ccccc2)c1)N1CCC(Oc2ncnc3ccsc23)CC1 [Ref. example 64]")
"< 25%"

So, CN[C@@H](C)C(=O)N[C@H](C(=O)N1CCN(C(=O)c2c(C(=O)NCCOCCOCCOc3cc(CN4CCC(Oc5ccnc6ccsc56)CC4)on3)c3cc(F)c(F)cc3n2C)C[C@H]1C)C1CCCCC1 [Example 10] ? Its remaining binding at 1 µM was 25 to 50%

Value of measured remaining binding at 1 µM for the entry Cc1ncsc1-c1ccc(CNC(=O)[C@@H]2C[C@@H](O)CN2C(=O)[C@H](C(C)C)N2Cc3ccccc3C2=O)c(OCCOCCOc2cc(CN3CCC(Oc4ccnc5ccsc45)CC3)on2)c1 [Example 63] : < 25%

For c1cc(Nc2ncnc3ccsc23)ccn1 [Ref. example 21] the compound record lists remaining binding at 1 µM as < 25%

* * *

biological target: human XIAP_BIR3 domain purified protein (Homo sapiens)
Sequence (P98170 252-356 limits assumed): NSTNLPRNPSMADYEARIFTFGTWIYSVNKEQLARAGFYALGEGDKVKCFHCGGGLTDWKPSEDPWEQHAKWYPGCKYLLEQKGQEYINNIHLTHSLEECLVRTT
pIC50: −log10 of the molar value. Counter-ions that a name gives are not always drawn.
Measured pIC50 accompanies every entry in the list below.

Example entries and their recorded answers appear below.
>>> reported("CN[C@@H](C)C(=O)N[C@H](C(=O)N1CCN(C(=O)c2ccc3c(c2)cc(C)n3CCOCCOCCOc2cc(CN3CCC(Oc4ccnc5ccsc45)CC3)on2)CC1)C1CCCCC1 [Example 55]")
"5.52 to 6.52"
>>> reported("CN[C@@H](C)C(=O)N[C@H](C(=O)N1CCN(C(=O)c2c(F)c3cc(F)ccc3n2CC(=O)N(C)CCOCCOCCOCCOc2cc(CN3CCC(Oc4ccnc5ccsc45)CC3)on2)CC1)C1CCCCC1 [Example 36]")
"4.52 to 5.52"
>>> reported("CN[C@@H](C)C(=O)N[C@H](C(=O)N1CCN(C(=O)c2c(C(=O)NCCOCCOCCOc3cc(CN4CCC(Oc5ccnc6ccsc56)CC4)on3)c3cc(F)c(F)cc3n2C)C[C@H]1C)C1CCCCC1 [Example 10]")
"5.52 to 6.52"
>>> reported("CN[C@@H](C)C(=O)N[C@H](C(=O)N1CCN(C(=O)c2cc3cc(F)c(F)cc3n2CC(=O)N2CCC[C@H]2COc2cc(CN3CCC(Oc4ccnc5ccsc45)CC3)on2)CC1)C1CCCCC1 [Example 25, hydrochloride]")
"4.52 to 5.52"

Let us examine a further case.
The value of pIC50 recorded for CN[C@@H](C)C(=O)N[C@H](C(=O)N1CCN(C(=O)c2c(C)c3cc(F)ccc3n2CC(=O)N2CCC[C@H]2COc2cc(CN3CCC(Oc4ccnc5ccsc45)CC3)on2)CC1)C1CCCCC1 [Example 39] when tested on human XIAP_BIR3 domain purified protein (Homo sapiens) reads 4.52 to 5.52

Each recorded value in this set is attributed to patent US20220402935A1.
